targetOrTestSystem: T1, Mouse PD-L1 Fc-fusion protein (R&D Systems, 1019-B7) (Mus musculus, UniProt Q9EP73)
T1 construct: programmed death-ligand 1 (PD-L1, B7-H1, CD274), mouse; also called moPD-L1; B7-H1; source: bought: R&D Systems (1019-B7)
T1 sequence (Q9EP73 19-239): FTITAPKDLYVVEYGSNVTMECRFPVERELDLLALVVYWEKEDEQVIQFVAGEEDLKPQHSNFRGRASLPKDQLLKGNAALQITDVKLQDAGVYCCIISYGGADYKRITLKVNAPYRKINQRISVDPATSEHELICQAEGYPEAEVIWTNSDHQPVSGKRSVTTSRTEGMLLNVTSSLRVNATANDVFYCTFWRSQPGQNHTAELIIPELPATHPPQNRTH
assayMethodText: SPR; Biacore T200, 25°C, HBS (0.01 M HEPES pH 7.4, 0.15 M NaCl, 3 mM EDTA, 0.005% Tween 20); mouse or human PD-L1 Fc-fusion protein amine-coupled on a CM5 chip (650-900 RU); Nb in crude periplasmic extract as analyte, its concentration estimated by CFCA; 9 dilutions, 120 s association, 160 s dissociation; 1-to-1 fit; affinity estimations
recordedConditions: one partner purified
Overview of recorded pKd for various binders
By convention, pKd is the negative base-10 log of a molar concentration.

Nb C3 (HA-tagged, in periplasmic extract) (VHH, source: E. coli WK6 (pHEN4), crude periplasmic extract) VHH: QVQLQESGGGLVQTGGSLRLSCAASGSTVSSSMMAWWRQTPGNQRELVALVASGNNTNYVDSVKGRFTVSRDNAKNTMYLQMNSLKPEDTAVYYCRILSVNGIWYWGQGTQVTVSS	9.85
Nb G1 (HA-tagged, in periplasmic extract) (VHH, source: E. coli WK6 (pHEN4), crude periplasmic extract) VHH: QVQLQESGGGLVQPGGSLRLSCAASGSISSFNFMGWYRQAPGKQRELVALSTNSGVTNVAGSVKGRFTISRDNAKTTVYLQMNSLKPEDTAVYYCRVGAMGNLYWGQGTQVTVSS	8.36
Nb E6 (HA-tagged, in periplasmic extract) (VHH, source: E. coli WK6 (pHEN4), crude periplasmic extract) VHH: QVQLQESGGGLVQAGGSLRLSCATSGSIFSIISMGWYRQAPGKQRELVALVFRGGSTVYADSVKGRFTISGDIAKSTVYLQMDSLKPEDTAVYYCNAKPIGTAQYWGQGTQVTVSS	8.16
Nb C9 (HA-tagged, in periplasmic extract) (VHH, source: E. coli WK6 (pHEN4), crude periplasmic extract) VHH: QVQLQESGGGLVQAGESLRLSCAGSGSTVSSSTMAWWRQTPGNQRELVALVASGGNTNYVDSVKGRFTVSRDNAKNTMYLQMNSLKPEDTAVYYCRILSMNGIWYWGQGTQVTVSS	8.66
Nb C14 (HA-tagged, in periplasmic extract) (VHH, source: E. coli WK6 (pHEN4), crude periplasmic extract) VHH: QVQLQESGGGLVQTGGSLRLSCAASGSTVGSSTMAWWRQTPGNQRELVALVGLGGNTNYVDSVKGRFTVSIDNAENTMYLQMNSLKFEDTAVYYCRILSVNGIWYWGQGTQVTVSS	8.74
Nb C12 (HA-tagged, in periplasmic extract) (VHH, source: E. coli WK6 (pHEN4), crude periplasmic extract) VHH: QVQLQESGGGLVQTGGSLRLSCAASGSTVSSSTMAWWRQTPGNQRELVALVASGGNTNYVDSVKGRFTVSRDNAKNTMYLQMNSLKAEDTAVYYCRILSVNGIWYWGQGTQVTVSS	7.94

Given the binder Nb G4 (HA-tagged, in periplasmic extract) (VHH, source: E. coli WK6 (pHEN4), crude periplasmic extract) VHH: QVQLQESGGGLVQAGGSLRLSCAASGSISSFNFMGWYRQAPGKQRELVALSTNSGVTNVAGSVKGRFTISRDNAKTTVYLQMNSLKPEDTAVYYCRVGAMGNLYWGQGTQVTVSS , what is its reported pKd?
8.21

Record request: pKd value, item Nb G2 (HA-tagged, in periplasmic extract) (VHH, source: E. coli WK6 (pHEN4), crude periplasmic extract) VHH: QVQLQESGGGLVQPGGSLRLSCVASGSISSFNFMGWYRQAPGKQRELVALSTNSGVTNVAGSVKGRFTISRDNAKTTVYLQMNSLKPEDTAVYYCRVGAMGNLYWGQGTQVTVSS
8.26

Please report the recorded pKd for Nb E5 (HA-tagged, in periplasmic extract) (VHH, source: E. coli WK6 (pHEN4), crude periplasmic extract) VHH: QVQLQESGGGLVQPGGSLRLSCATSGSIFSIISMGWYRQAPGKQRELVALVFRGGSTVYADSVKGRFTISGDIAKSTVYLQMDSLKPEDTAVYYCNAKPIGTAQYWGQGTQVTVSS .
7.85

Find the recorded pKd belonging to Nb E2 (HA-tagged, in periplasmic extract) (VHH, source: E. coli WK6 (pHEN4), crude periplasmic extract) VHH: QVQLQESGGGLVQAGGSLRLSCATSGSIFSIISMGWYRQAPGKQRELVALVFRGGSTVYADSVKGRFTISGDIAKNTVYLQMDSLKPEDTAVYYCNVKSIGTAQYWGQGTQITVSS and report it.
8.25
